This listing pairs sequences with measured apparent KD of MS2 coat protein.
Test system: MS2 coat protein
ASSAY: apparent KD of MS2 coat protein; designed switch direction (-1 OFF switch, 1 ON switch): -1; higher = weaker reporter binding
EXPERIMENTAL_SETUP: input ligand: none
METRIC_NAME: apparent KD of MS2 coat protein (µM)

>  <RESIDUE_SEQUENCE>
AGAGUGGAGACAGGAUAUGAGAAUAGAUAGAAAUCAGAAGGGUCACAUGAGGAUCACCCAUGUAAAGUCUUGAGGAUGAGUGAU [Prohibition 1 - Jieux - Exclusion NG1] (Eterna round: R96, puzzle: Exclusion NG 1)

>  <METRIC_NAME>
apparent KD of MS2 coat protein

>  <OBSERVED>
0.0817

$$$$
>  <RESIDUE_SEQUENCE>
ACAUGUCAUCGAGGAUAUUGUACACAUGAGGAUCACCCAUGUACUCGGUUGCUCUAGCAUGAGUUCGAGAAGGCGAUGUACAUU [Ex NG2 #81] (Eterna round: R96, puzzle: Exclusion NG 2)

>  <METRIC_NAME>
apparent KD of MS2 coat protein

>  <OBSERVED>
0.0384

$$$$

###

System: K4 kissing-loop RNA reporter
ASSAY: apparent KD of K4 kissing-loop reporter; higher = weaker reporter binding
EXPERIMENTAL_SETUP: Eterna round: R107; input ligand: tryptophan 2.4 mM
Kind request: treat 400 nM as inclusive, so apparent KD of K4 kissing-loop reporter at 400 nM or higher is Yes, anything lower is No.

>  <RESIDUE_SEQUENCE>
GGUUUAUAGGAGGAUACCAGUACGGAUAAAGUACGUUAAUAGUAGAGUGAUGUUCUAAAGUACCCUUGGCAGCUUAGAUUAAGUU [ExTheophylB.J]

>  <TEST_SYSTEM>
K4 kissing-loop RNA reporter

>  <ASSIGNED_CATEGORY>
No

$$$$
>  <RESIDUE_SEQUENCE>
AGCUCAGAGUGACUCGAUAAGAGUCACAAACGAGGACCGGUACGGCCGCCACUCGAAAUAACGAGAGUGAUGUUCUCGCUGAGCA [#SwitchBubble 1 #StaticStem #K4Late]

>  <TEST_SYSTEM>
K4 kissing-loop RNA reporter

>  <ASSIGNED_CATEGORY>
No

$$$$
>  <RESIDUE_SEQUENCE>
GAUAUAGUGAUGUUAUAUAGGAAGGAGUUACGAGGACCGGUACGGCCGCCACUCGAAACGAGUGAUGAUUUGGGAGAUUGGGUUG [SSTryptA.P]

>  <TEST_SYSTEM>
K4 kissing-loop RNA reporter

>  <ASSIGNED_CATEGORY>
No

$$$$
>  <RESIDUE_SEQUENCE>
GAUUUAGAGGCGGCCGCCACUAGUGAUGUUAGUGAUGUUUGAUACGGAAUAUAUCUGCGAGUAGAUAGGACCGGGCCAGAUGGAG [rttrbmullin]

>  <TEST_SYSTEM>
K4 kissing-loop RNA reporter

>  <ASSIGNED_CATEGORY>
No

$$$$
>  <RESIDUE_SEQUENCE>
AACGUUUUGAGAAGGAGCGCGAUAAGCAGUGAUGUUGCUAUAAUUCUAUUUCUAUUUAAUUCGCAGGUAGGUCGCUCAAUACGUA [JR_SSArginiB_Sub019]

>  <TEST_SYSTEM>
K4 kissing-loop RNA reporter

>  <ASSIGNED_CATEGORY>
No

$$$$
>  <RESIDUE_SEQUENCE>
AUUGAUAUAUAUAUUUGAUUUUUAUGUGAUACCAGACAAGGCAUAGUCCCUUGGCAGCACUUUAUAUUUACGAGUGAUGUUCGUA [JR_SSTheophyA_Sub025]

>  <TEST_SYSTEM>
K4 kissing-loop RNA reporter

>  <ASSIGNED_CATEGORY>
No

$$$$
>  <RESIDUE_SEQUENCE>
GCCGUACGCAUGGAUACCAGCGUACGUCACCUAGCAGUGAUGUUGCUAUUGCCACGUAAACGCCCUUGGCAGCCAUGCGUACGGC

>  <TEST_SYSTEM>
K4 kissing-loop RNA reporter

>  <ASSIGNED_CATEGORY>
Yes

$$$$
>  <RESIDUE_SEQUENCE>
CUGGGUUGACGAAAAGUCAACAAACGAGAAGGAGCGCACGAAAGUGCAGGUAGGUCGCUCAGUCCAGUGAUGUUGGAACAUCCAG [#SwitchBubble 8 #K4Late]

>  <TEST_SYSTEM>
K4 kissing-loop RNA reporter

>  <ASSIGNED_CATEGORY>
Yes

$$$$
>  <RESIDUE_SEQUENCE>
UGAUACCAGACGGCCGCCACUCCCGUAAGUCAAAGACUUACGAAGAGAGUUUUUCAGUGAUGUUGGAGGACCGGGUCUGGUAUCU [FiskerMod 16 - Jieux - Exclusion - Tryptophan B]

>  <TEST_SYSTEM>
K4 kissing-loop RNA reporter

>  <ASSIGNED_CATEGORY>
Yes

$$$$
>  <RESIDUE_SEQUENCE>
UGAUACCAGGCGGCCGCCACUCCCGCAGGUCAAAGACCUGCGAAGCUGGUUCUUCAGUGAUGUUGGAGGACCGGGCCUGGUAUCU [FiskerMod 25 - Jieux - Exclusion - Tryptophan B]

>  <TEST_SYSTEM>
K4 kissing-loop RNA reporter

>  <ASSIGNED_CATEGORY>
Yes

$$$$
>  <RESIDUE_SEQUENCE>
CAUGGGCCAGUGAUGUUGGCGCGCACGGGACGAGGACCGGUACGGCCGCCACUCGCUUUUGCUCUUAUCGGGAUAAGAAAACCGA [Enveerorle]

>  <TEST_SYSTEM>
K4 kissing-loop RNA reporter

>  <ASSIGNED_CATEGORY>
Yes

$$$$
>  <RESIDUE_SEQUENCE>
AGAGAUAUAUGAGGAUAUGAGUUAGUUAAUGAGUGAGUUUUAGUGUUGUUUGGUUAGUGAUGUUAUUUAGAAGGCGUGAGUGAUG [ttytmullin]

>  <TEST_SYSTEM>
K4 kissing-loop RNA reporter

>  <ASSIGNED_CATEGORY>
No

$$$$

###

Tested on: K4 kissing-loop RNA reporter
ASSAY: apparent KD of K4 kissing-loop reporter; higher = weaker reporter binding
EXPERIMENTAL_SETUP: Eterna round: R107; input ligand: tryptophan 2.4 mM
// label = rule met if apparent KD of K4 kissing-loop reporter is not less than 200 nM, otherwise rule not met

>  <RESIDUE_SEQUENCE>
GCUAUGGUAGGAAGGAGCGCUUGUUCGGUCAUAUGAGUGAUGUUCGAGACUGAGCAUUUAUAGCAGGUAGGUCGCCUACUAUAGC [Arginine B K4 10]

>  <TEST_SYSTEM>
K4 kissing-loop RNA reporter

>  <ASSIGNED_CATEGORY>
rule not met

$$$$
>  <RESIDUE_SEQUENCE>
GGAGAGCGGAACGAUACCAGCUGCGGCACGCACCGGAAGUUAAGCCAGUGAUGUUGGCGGAGCCCUUGGCAGCGUGCGCGCGUCC [Abeusma]

>  <TEST_SYSTEM>
K4 kissing-loop RNA reporter

>  <ASSIGNED_CATEGORY>
rule not met

$$$$
>  <RESIDUE_SEQUENCE>
UGAUACCAGACUGAUACCAGCUAGUGAUGUUAGCUAAAAUCAGGGUCAAAGACCCUGUCUGGCCCUUGGCAGCAGUCUGGUAUCU [TheoBX 10 #SwitchBubble #StaticStem]

>  <TEST_SYSTEM>
K4 kissing-loop RNA reporter

>  <ASSIGNED_CATEGORY>
rule not met

$$$$
>  <RESIDUE_SEQUENCE>
CGUUUAUAGCAGGAUACCAGUACCCAUAAAGUACGUUAAUAGUAGAGUGAUGUUCUAAAGUACCCUUGGCAGCUUCCCGUGACCC [ExTheophylB.W]

>  <TEST_SYSTEM>
K4 kissing-loop RNA reporter

>  <ASSIGNED_CATEGORY>
rule not met

$$$$
>  <RESIDUE_SEQUENCE>
ACGGGCGGCUGAAGGAGCGGGCGGGCCCGAGUGAUGUUCGGGUGGGCCGUGAGGCCCGGAGCCCAGGUAGGUCGCGGUUCCGUCC [#2 Same State - Arginine B Attempt #21 (HarryS)]

>  <TEST_SYSTEM>
K4 kissing-loop RNA reporter

>  <ASSIGNED_CATEGORY>
rule not met

$$$$
>  <RESIDUE_SEQUENCE>
CUCGUGGGUUUGAGAGGGCUUGUGGGAAGUGAGGAUAUUUAGGGAGAAAGAAGGCACUAUAGAAUAUAGUGAUGUUAUGUAAGGG [SSFMNA.O]

>  <TEST_SYSTEM>
K4 kissing-loop RNA reporter

>  <ASSIGNED_CATEGORY>
rule met

$$$$
>  <RESIDUE_SEQUENCE>
GGUUGAAGUACCCGGAGUGAUGUUCCGGAUACCAGCAAACCAACUUGCCCUUGGCAGCCGUAUAGCGUCCGGUGGACCGAGCAUA [Soriesreve]

>  <TEST_SYSTEM>
K4 kissing-loop RNA reporter

>  <ASSIGNED_CATEGORY>
rule not met

$$$$
>  <RESIDUE_SEQUENCE>
GGGAGAGCGCGAAGGAGCGCCCUGACAGGUUGCUGCCGUGGGCAGUGAUGUUGCUCAGUCCGGCAGGUAGGUCGCGUGCUCUCCC

>  <TEST_SYSTEM>
K4 kissing-loop RNA reporter

>  <ASSIGNED_CATEGORY>
rule not met

$$$$
>  <RESIDUE_SEQUENCE>
UGAUAGGACAGAAGGAGCGGAAGUGAUGUUUCCAAAAGGUAAGGUCGACAAAGUCGACCCUUCCAGGUAGGUCGCUGUCCUAUCU [ArgBX 11 #Palindromic #SwitchBubble #StaticStem]

>  <TEST_SYSTEM>
K4 kissing-loop RNA reporter

>  <ASSIGNED_CATEGORY>
rule not met

$$$$
>  <RESIDUE_SEQUENCE>
UCUCAAGCACAGUGAUGUUGUGCUUGGGAAGGAGCGCGUGGGAACGCAGGUAGGUCGCCCGGUAAAUCGCGUCAAUGCUAGAGGC [Arg A Ex t5]

>  <TEST_SYSTEM>
K4 kissing-loop RNA reporter

>  <ASSIGNED_CATEGORY>
rule not met

$$$$
>  <RESIDUE_SEQUENCE>
GCCGAAUCGUUGGGCUCAGUGAUGUUGAUCCGAGGACCGGUACGGCCGCCACUCGAAUGGCAGUGACCACACUGGUAACGUUAAA [theeternabot_exclusion_KL_Trp_A_43]

>  <TEST_SYSTEM>
K4 kissing-loop RNA reporter

>  <ASSIGNED_CATEGORY>
rule met

$$$$
>  <RESIDUE_SEQUENCE>
GCCGUAGAUGGAAGGAGCGAGGUAGACUGUUGAAGUGAUGUUUCAACUCAUUAAGCCCAACCUCAGGUAGGUCGCCAUCUACGGC

>  <TEST_SYSTEM>
K4 kissing-loop RNA reporter

>  <ASSIGNED_CATEGORY>
rule not met

$$$$
>  <RESIDUE_SEQUENCE>
GACUCAUGUAGAAGGAGCGUCAGAAGCUACAGACAUGAGUGAUGUUCAUGUUAGUUGAUCUGACAGGUAGGUCGCUACAGCAGGA [KL-SSArg B14 #analogue]

>  <TEST_SYSTEM>
K4 kissing-loop RNA reporter

>  <ASSIGNED_CATEGORY>
rule not met

$$$$
>  <RESIDUE_SEQUENCE>
GGCAGUGAUGUUGCCAGUGGCAGAUGAGAAGGAGCGUGGUGAGACACAGGUAGGUCGCUCAUUGAAAUUGCUGUCACUAAAAUGC [#5]

>  <TEST_SYSTEM>
K4 kissing-loop RNA reporter

>  <ASSIGNED_CATEGORY>
rule met

$$$$
>  <RESIDUE_SEQUENCE>
ACGUAGUUCUAGGAUACCAGCCAAGAAGCCAGGACAAAAGUCCUGGCUGCCAGUGAUGUUGGCCCUUGGCAGCCUAGAACUACGA [Omei KL Theo B Exc B v10]

>  <TEST_SYSTEM>
K4 kissing-loop RNA reporter

>  <ASSIGNED_CATEGORY>
rule not met

$$$$
>  <RESIDUE_SEQUENCE>
AGUCCACUCUAAAGAGUGGACCUAAGGGAUACCAGUGAUGUUGGUCACCCUUGGCAGCCCAGGGCCCGGGAUAAACCCGGGCCCA [#09 K4 Theophylline A Exclusion]

>  <TEST_SYSTEM>
K4 kissing-loop RNA reporter

>  <ASSIGNED_CATEGORY>
rule not met

$$$$
>  <RESIDUE_SEQUENCE>
AAGGUAUCACCACAACAUCACUAAGGUGAUACCAGCAUCGAAAGAUGCCCUUGGCAGCACCAACUUGCAGUGAUGUUGCAAGUAA [(T)'-(H)'-(T1)-(T2)-(H1)-(H2)_Design9]

>  <TEST_SYSTEM>
K4 kissing-loop RNA reporter

>  <ASSIGNED_CATEGORY>
rule met

$$$$
>  <RESIDUE_SEQUENCE>
UUAUAUUUCAGUGAUGUUGAAAAUAUAACAGAGGAUAUGCGUUUAAGCAGAAGGCUGAAAUACUAUACUUUAAUCUAUUAAAUUU [JR_Nu_SSFMNA_Sub027]

>  <TEST_SYSTEM>
K4 kissing-loop RNA reporter

>  <ASSIGNED_CATEGORY>
rule met

$$$$
>  <RESIDUE_SEQUENCE>
GAGCGGUGGAGGUUACCGCUAUUCUGAGAAGGAGCGCAGAUGACUGCAGGUAGGUCGCUUAGAGCUUGCAGUGAUGUUGCAAGUU [Edrirama]

>  <TEST_SYSTEM>
K4 kissing-loop RNA reporter

>  <ASSIGNED_CATEGORY>
rule met

$$$$
>  <RESIDUE_SEQUENCE>
GAAUUAUGUAGAAGGAGCGUUAGAAGGUAUAGGUGUGAGUGAUGUUCGGAUUUGUUAAUUUGACAGGUAGGUCGCUACAGAAGGA [KL-SSArg B17 #analogue]

>  <TEST_SYSTEM>
K4 kissing-loop RNA reporter

>  <ASSIGNED_CATEGORY>
rule not met

$$$$
>  <RESIDUE_SEQUENCE>
UAACUUGCAGUGAUGUUGCAAGAACUGGAUACCAGCAUGGAAACAUGCCCUUGGCAGCCAGAAGCUGGCUGACUGCAAGGUCAGC [Design4]

>  <TEST_SYSTEM>
K4 kissing-loop RNA reporter

>  <ASSIGNED_CATEGORY>
rule not met

$$$$
>  <RESIDUE_SEQUENCE>
UGAUAGGACAGAAGGAGCGAGGAGUGAUGUUCCUCAAAAGGUCUAGCAAAGCUAGACCCUCCUCAGGUAGGUCGCUGUCCUAUCU [ArgBX 1 #Palindromic #SwitchBubble #StaticStem]

>  <TEST_SYSTEM>
K4 kissing-loop RNA reporter

>  <ASSIGNED_CATEGORY>
rule not met

$$$$
>  <RESIDUE_SEQUENCE>
ACAGUUGCUAGUGAUACCAGACUAGCACUACGUAAUAUGUCAAGUGAUGUUUGACAACUAGUCCCUUGGCAGCGCGAUACGACUG [#11 K4 Theophylline B Same State]

>  <TEST_SYSTEM>
K4 kissing-loop RNA reporter;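 also: bound reporter read as fluorescence of individual clusters on recovered sequencing chips by microscopy, with normalized cluster intensities fitted with a binding model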

>  <ASSIGNED_CATEGORY>
rule met

$$$$
